# Test system: Escherichia coli ATCC 25922
# Assay type: cell-based
# ASSAY CONTEXT: ATCC 25922
Where a SMILES comes first, the peptide text is derived from it. [ ]: non-standard residue; d: D form. The star is where a group is joined. Heptanoyl = CCCCCCC(=O)*; Octanoyl = CCCCCCCC(=O)*; Dab = NCC[C@H](N)C(=O)O
MEASURED QUANTITY: Minimum inhibitory concentration

[
  {
    "COMPOUND": "CCCCCCC(=O)N[C@@H](CCN)C(=O)N[C@@H](Cc1ccccc1)C(=O)N[C@@H](CCN)C(=O)N[C@H](Cc1ccccc1)C(=O)N[C@@H](CC(C)C)C(=O)N[C@@H](CCN)C(=O)N[C@H](CC(C)C)C(=O)N[C@@H](Cc1ccccc1)C(=O)N[C@@H](CO)C(N)=O [Analogue 7] (Heptanoyl-[Dab]F[Dab][dF]L[Dab][dL]FS-NH2)",
    "RESULT": "0.5 to 2 µg/mL"
  },
  {
    "COMPOUND": "CCCCCCC(=O)N[C@@H](CCN)C(=O)N[C@H](C(=O)N[C@@H](CCN)C(=O)N[C@H](Cc1ccccc1)C(=O)N[C@@H](CC(C)C)C(=O)N[C@@H](CCN)C(=O)N[C@H](CC(C)C)C(=O)N[C@@H](CC(C)C)C(=O)N[C@@H](CO)C(N)=O)[C@@H](C)CC [Analogue 5] (Heptanoyl-[Dab]I[Dab][dF]L[Dab][dL]LS-NH2)",
    "RESULT": "1 to 4 µg/mL"
  },
  {
    "COMPOUND": "CCCCCCCC(=O)N[C@@H](CCN)C(=O)N[C@H](C(=O)N[C@@H](CCN)C(=O)N[C@H](Cc1ccccc1)C(=O)N[C@@H](CC(C)C)C(=O)N[C@@H](CCN)C(=O)N[C@@H](C(=O)N[C@@H](CC(C)C)C(=O)N[C@@H](CCN)C(N)=O)C(C)C)[C@@H](C)CC [Analogue 9] (Octanoyl-[Dab]I[Dab][dF]L[Dab][dV]L[Dab]-NH2)",
    "RESULT": "4 to 16 µg/mL"
  }
]

* * *

# Tested on: rabbit red blood cells
# EXPERIMENT NOTES: Hemolytic activity
# Format: cell-based
# ASSAY CONTEXT: 128 μg/mL; relative to Triton X-100
Where a SMILES comes first, the peptide text is derived from it. [ ]: non-standard residue; d: D form. The star is where a group is joined. ξ: configuration not given here. Heptanoyl = CCCCCCC(=O)*; Octanoyl = CCCCCCCC(=O)*; Orn = NCCC[C@H](N)C(=O)O; Dab = NCC[C@H](N)C(=O)O; Cbz = O=C(OCc1ccccc1)*; ξDab = NCCC(N)C(=O)O

[
  {
    "MOLECULE": "CCCCCCCC(=O)N[C@@H](CCN)C(=O)NC(CCN)C(=O)N[C@@H](CCN)C(=O)N[C@H](Cc1ccccc1)C(=O)N[C@@H](CC(C)C)C(=O)N[C@@H](CCN)C(=O)N[C@@H](C(=O)N[C@@H](CC(C)C)C(=O)N[C@@H](CCN)C(N)=O)C(C)C (stereo partly drawn) [Analogue 10] (Octanoyl-[Dab][ξDab][Dab][dF]L[Dab][dV]L[Dab]-NH2)",
    "Hemolysis [%]": 0.80
  },
  {
    "MOLECULE": "CCCCCCC(=O)N[C@@H](CCN)C(=O)N[C@H](C(=O)N[C@@H](CCN)C(=O)N[C@H](Cc1ccccc1)C(=O)N[C@@H](CC(C)C)C(=O)N[C@@H](CCN)C(=O)N[C@@H](C(=O)N[C@@H](CC(C)C)C(=O)N[C@@H](CO)C(N)=O)C(C)C)C(C)C [Analogue 2] (Heptanoyl-[Dab]V[Dab][dF]L[Dab][dV]LS-NH2)",
    "Hemolysis [%]": 0.95
  },
  {
    "MOLECULE": "CCCCCCCC(=O)N[C@@H](CCCN)C(=O)N[C@H](C(=O)N[C@@H](CCCN)C(=O)N[C@H](Cc1ccccc1)C(=O)N[C@@H](CC(C)C)C(=O)N[C@@H](CCCN)C(=O)N[C@@H](C(=O)N[C@@H](CC(C)C)C(=O)N[C@@H](CO)C(N)=O)C(C)C)[C@@H](C)CC [Analogue 11] (Octanoyl-[Orn]I[Orn][dF]L[Orn][dV]LS-NH2)",
    "Hemolysis [%]": 1.12
  },
  {
    "MOLECULE": "CCCCCCC(=O)N[C@@H](CCN)C(=O)N[C@H](C(=O)N[C@@H](CCN)C(=O)N[C@H](Cc1ccccc1)C(=O)N[C@@H](CC(C)C)C(=O)N[C@@H](CCN)C(=O)N[C@@H](C(=O)N[C@@H](CC(C)C)C(=O)N[C@@H](CO)C(N)=O)C(C)C)[C@@H](C)CC [Analogue 3] (Heptanoyl-[Dab]I[Dab][dF]L[Dab][dV]LS-NH2)",
    "Hemolysis [%]": 1.77
  },
  {
    "MOLECULE": "CCCCCCC(=O)N[C@@H](CCN)C(=O)N[C@@H](Cc1ccccc1)C(=O)N[C@@H](CCN)C(=O)N[C@H](Cc1ccccc1)C(=O)N[C@@H](CC(C)C)C(=O)N[C@@H](CCN)C(=O)N[C@H](CC(C)C)C(=O)N[C@@H](CC(C)C)C(=O)N[C@@H](CO)C(N)=O [Analogue 6] (Heptanoyl-[Dab]F[Dab][dF]L[Dab][dL]LS-NH2)",
    "Hemolysis [%]": 8.34
  },
  {
    "MOLECULE": "CC[C@H](C)[C@H](NC(=O)[C@H](CCN)NC(=O)OCc1ccccc1)C(=O)N[C@@H](CCN)C(=O)N[C@H](Cc1ccccc1)C(=O)N[C@@H](CC(C)C)C(=O)N[C@@H](CCN)C(=O)N[C@@H](C(=O)N[C@@H](CC(C)C)C(=O)N[C@@H](CO)C(N)=O)C(C)C [Analogue 15] (Cbz-[Dab]I[Dab][dF]L[Dab][dV]LS-NH2)",
    "Hemolysis [%]": 0.65
  }
]

* * *

# Test system: rabbit red blood cells
# EXPERIMENT NOTES: Hemolytic activity
# Format: cell-based
# ASSAY CONTEXT: 32 μg/mL; relative to Triton X-100
Where a SMILES comes first, the peptide text is derived from it. [ ]: non-standard residue; d: D form. The star is where a group is joined. Heptanoyl = CCCCCCC(=O)*; Octanoyl = CCCCCCCC(=O)*; Dab = NCC[C@H](N)C(=O)O; Hexanoyl = CCCCCC(=O)*
Entries and their Hemolysis

[
  {
    "COMPOUND": "CCCCCC(=O)N[C@@H](CCN)C(=O)N[C@H](C(=O)N[C@@H](CCN)C(=O)N[C@H](Cc1ccccc1)C(=O)N[C@@H](CC(C)C)C(=O)N[C@@H](CCN)C(=O)N[C@@H](C(=O)N[C@@H](CC(C)C)C(=O)N[C@@H](CO)C(N)=O)C(C)C)[C@@H](C)CC [Analogue 1] (Hexanoyl-[Dab]I[Dab][dF]L[Dab][dV]LS-NH2)",
    "Hemolysis, %": 0.41
  },
  {
    "COMPOUND": "CCCCCCC(=O)N[C@@H](CCN)C(=O)N[C@@H](Cc1ccccc1)C(=O)N[C@@H](CCN)C(=O)N[C@H](Cc1ccccc1)C(=O)N[C@@H](CC(C)C)C(=O)N[C@@H](CCN)C(=O)N[C@H](CC(C)C)C(=O)N[C@@H](CC(C)C)C(=O)N[C@@H](CO)C(N)=O [Analogue 6] (Heptanoyl-[Dab]F[Dab][dF]L[Dab][dL]LS-NH2)",
    "Hemolysis, %": 0.39
  },
  {
    "COMPOUND": "CCCCCCCC(=O)N[C@@H](CCN)C(=O)N[C@H](C(=O)N[C@@H](CCN)C(=O)N[C@H](Cc1ccccc1)C(=O)N[C@@H](CC(C)C)C(=O)N[C@@H](CCN)C(=O)N[C@@H](C(=O)N[C@@H](CC(C)C)C(=O)N[C@@H](CCN)C(N)=O)C(C)C)[C@@H](C)CC [Analogue 9] (Octanoyl-[Dab]I[Dab][dF]L[Dab][dV]L[Dab]-NH2)",
    "Hemolysis, %": 0.80
  }
]

* * *

Entries and their Hemolysis
# Tested on: rabbit red blood cells
# EXPERIMENT NOTES: Hemolytic activity
# Assay type: cell-based
# ASSAY CONTEXT: 128 μg/mL; relative to Triton X-100
Where a SMILES comes first, the peptide text is derived from it. [ ]: non-standard residue; d: D form. The star is where a group is joined. Cha = N[C@@H](CC1CCCCC1)C(=O)O; Heptanoyl = CCCCCCC(=O)*; Dab = NCC[C@H](N)C(=O)O; Bz = O=C(c1ccccc1)*

[
  {
    "COMPOUND": "CC(C)C[C@H](NC(=O)[C@@H](Cc1ccccc1)NC(=O)[C@H](CCN)NC(=O)[C@H](Cc1ccccc1)NC(=O)[C@H](CCN)NC(=O)[C@@H](N)CC1CCCCC1)C(=O)N[C@@H](CCN)C(=O)N[C@H](CC(C)C)C(=O)N[C@@H](Cc1ccccc1)C(=O)N[C@@H](CO)C(N)=O [Analogue 17] (H-[Cha][Dab]F[Dab][dF]L[Dab][dL]FS-NH2)",
    "Hemolysis [%]": 34.6
  },
  {
    "COMPOUND": "CC[C@H](C)[C@H](NC(=O)[C@H](CCN)NC(=O)c1ccccc1)C(=O)N[C@@H](CCN)C(=O)N[C@H](Cc1ccccc1)C(=O)N[C@@H](CC(C)C)C(=O)N[C@@H](CCN)C(=O)N[C@@H](C(=O)N[C@@H](CC(C)C)C(=O)N[C@@H](CO)C(N)=O)C(C)C [Analogue 14] (Bz-[Dab]I[Dab][dF]L[Dab][dV]LS-NH2)",
    "Hemolysis [%]": 0.70
  },
  {
    "COMPOUND": "CCCCCCC(=O)N[C@@H](CCN)C(=O)N[C@@H](Cc1ccccc1)C(=O)N[C@@H](CCN)C(=O)N[C@H](Cc1ccccc1)C(=O)N[C@@H](CC(C)C)C(=O)N[C@@H](CCN)C(=O)N[C@H](CC(C)C)C(=O)N[C@@H](Cc1ccccc1)C(=O)N[C@@H](CO)C(N)=O [Analogue 7] (Heptanoyl-[Dab]F[Dab][dF]L[Dab][dL]FS-NH2)",
    "Hemolysis [%]": 64.2
  }
]
